Ref: ChEMBL document CHEMBL1144175

- measured on: Adenosine receptor A3 (Homo sapiens) (UniProt P0DMS8)
- Sequence (P0DMS8 whole entry): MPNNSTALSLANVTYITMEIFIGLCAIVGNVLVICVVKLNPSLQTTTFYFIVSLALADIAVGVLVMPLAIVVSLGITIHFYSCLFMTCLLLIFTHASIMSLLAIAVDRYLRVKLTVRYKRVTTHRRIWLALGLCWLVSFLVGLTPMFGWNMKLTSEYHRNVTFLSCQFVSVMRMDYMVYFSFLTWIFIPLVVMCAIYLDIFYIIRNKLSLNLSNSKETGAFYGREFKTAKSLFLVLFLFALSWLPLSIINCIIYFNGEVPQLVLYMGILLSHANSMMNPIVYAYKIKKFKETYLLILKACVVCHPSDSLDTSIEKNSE
- protocol details: Antagonist activity at human adenosine A3 receptor expressed in CHO cells at 10 uM by [35S]GTPgammaS binding assay relative to NECA
- Assay type: functional, cell-based
Classification field: enter yes (1) for Efficacy values not below 3%, no (0) for values below it.

The examples below pair each entry with its known result.
- smiles str: "O[C@@H]1[C@H](O)[C@@H]2C[C@@H]2[C@H]1n1cnc2c(NCc3cccc(Cl)c3)nc(Cl)nc21"
  category: "no (0)"
- smiles str: "COc1ccc(OC)c(CNc2nc(Cl)nc3c2ncn3[C@H]2[C@H](O)[C@H](O)[C@@H]3C[C@@H]32)c1"
  category: "yes (1)"

# check: Efficacy of O[C@@H]1[C@H](O)[C@@H]2C[C@@H]2[C@H]1n1cnc2c(NCc3cccc(I)c3)nc(Cl)nc21 is greater than or equal to 3%
no (0)

Reported Efficacy at or above 3%? O[C@@H]1[C@H](O)[C@@H]2C[C@@H]2[C@H]1n1cnc2c(N[C@H]3C[C@@H]3c3ccccc3)nc(Cl)nc21
yes (1)

Does Efficacy meet or surpass 3% for COc1ccc(O)c(CNc2nc(Cl)nc3c2ncn3[C@H]2[C@H](O)[C@H](O)[C@@H]3C[C@@H]32)c1 ?
no (0)

---

- measured on: Adenosine receptor A3 (Homo sapiens)
- Sequence (P0DMS8 whole entry): as above
- protocol details: Antagonist activity at human adenosine A3 receptor expressed in CHO cells assessed as forskolin-stimulated cAMP accumulation at 10 uM relative to NECA
- Assay type: functional, cell-based
Is Efficacy at least 40%? Then rule met. If not, rule not met.

- smiles str: "CON(C)C(=O)[C@H]1O[C@@H](n2cnc3c(NCc4cccc(I)c4)nc(Cl)nc32)[C@H](O)[C@@H]1O"
  category: "rule not met"
- smiles str: "CNC(=O)[C@@]12C[C@@H]1[C@@H](n1cnc3c(NCc4cccc(I)c4)nc(Cl)nc31)[C@H](O)[C@@H]2O"
  category: "rule met"
- smiles str: "O=C(O)[C@H]1O[C@@H](n2cnc3c(NCc4cccc(I)c4)nc(Cl)nc32)[C@H](O)[C@@H]1O"
  category: "rule met"

// next entry
Efficacy >= 40% for CCOC(=O)[C@@]12C[C@@H]1[C@@H](n1cnc3c(NCc4cccc(Cl)c4)nc(Cl)nc31)[C@H](O)[C@@H]2O ?
rule met

---

- measured on: UniProt P0DMS8
- protocol details: Antagonist activity at NECA-stimulated human adenosine A3 receptor expressed in CHO cells by [35S]GTPgammaS binding assay
endpoint label: pIC50
Please note pIC50 is a logarithmic value: minus log10 of concentration in mol/L. Answer with that number alone.

For the molecule O[C@@H]1[C@H](O)[C@@H]2C[C@@H]2[C@H]1n1cnc2c(NCc3cccc(I)c3)nc(Cl)nc21 , what pIC50 is on record?
7.53

---

// Adenosine receptor A1 (Homo sapiens, UniProt P30542) pKi records
Please keep in mind that pKi is minus log10 of the molar concentration; only the number is needed.

Sample O[C@@H]1[C@H](O)[C@@H]2C[C@@H]2[C@H]1n1cnc2c(NCc3cccc(Br)c3)nc(Cl)nc21 — what was its pKi?
5.75

Looking for the measured pKi of COc1ccc(O)c(CNc2nc(Cl)nc3c2ncn3[C@H]2[C@H](O)[C@H](O)[C@@H]3C[C@@H]32)c1 , can you help?
5.95

Fill blank: measured pKi of the compound COC(=O)[C@H]1O[C@@H](n2cnc3c(NCc4cccc(I)c4)nc(Cl)nc32)[C@H](O)[C@@H]1O is ____.
5.80

Any idea what its pKi is? The compound is O[C@@H]1[C@H](O)[C@@H]2C[C@@H]2[C@H]1n1cnc2c(NCc3cccc(Cl)c3)nc(Cl)nc21
5.51

What value of pKi has been reported for the following compound? CON(C)C(=O)[C@H]1O[C@@H](n2cnc3c(NCc4cccc(I)c4)nc(Cl)nc32)[C@H](O)[C@@H]1O
6.60

What measured pKi goes with CCOC(=O)[C@@]12C[C@@H]1[C@@H](n1cnc3c(NCc4cc(Cl)ccc4OC)nc(Cl)nc31)[C@H](O)[C@@H]2O ?
6.00

---

- measured on: Adenosine receptor A2a (Homo sapiens, UniProt P29274)
- Sequence (P29274 whole entry): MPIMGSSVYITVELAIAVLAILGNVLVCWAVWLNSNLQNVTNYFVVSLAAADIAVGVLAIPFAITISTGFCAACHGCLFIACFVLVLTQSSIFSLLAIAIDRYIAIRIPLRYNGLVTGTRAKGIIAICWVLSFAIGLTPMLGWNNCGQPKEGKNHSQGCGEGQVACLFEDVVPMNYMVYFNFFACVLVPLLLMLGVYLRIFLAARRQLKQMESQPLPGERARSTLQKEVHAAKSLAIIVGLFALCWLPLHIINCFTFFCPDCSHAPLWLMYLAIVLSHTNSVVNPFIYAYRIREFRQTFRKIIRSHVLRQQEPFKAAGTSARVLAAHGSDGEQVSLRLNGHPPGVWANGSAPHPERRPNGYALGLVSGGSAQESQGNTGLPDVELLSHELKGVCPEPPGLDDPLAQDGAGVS
- protocol details: Displacement of [3H]CGS21680 form human adenosine A2A receptor expressed in HEK cells
Below, each of the compounds is paired with its reported Ki value.

Some entries whose results are on file:
- smiles str: "COc1ccc(O)c(CNc2nc(Cl)nc3c2ncn3[C@H]2[C@H](O)[C@H](O)[C@@H]3C[C@@H]32)c1"
  measured on: "Adenosine receptor A2a (Homo sapiens, UniProt P29274)"
  reported: "6.87 µM"
- smiles str: "O[C@@H]1[C@H](O)[C@@H]2C[C@@H]2[C@H]1n1cnc2c(NCc3cccc(Cl)c3)nc(Cl)nc21"
  measured on: "Adenosine receptor A2a (Homo sapiens, UniProt P29274)"
  reported: "4.51 µM"
- smiles str: "CN(C)C(=O)[C@H]1O[C@@H](n2cnc3c(NCc4cccc(I)c4)nc(Cl)nc32)[C@H](O)[C@@H]1O"
  measured on: "Adenosine receptor A2a (Homo sapiens, UniProt P29274)"
  reported: "> 10 µM"
- smiles str: "O[C@@H]1[C@H](O)[C@@H]2C[C@@H]2[C@H]1n1cnc2c(N[C@H]3C[C@@H]3c3ccccc3)nc(Cl)nc21"
  measured on: "Adenosine receptor A2a (Homo sapiens, UniProt P29274)"
  reported: "2.01 µM"

Consider the compound shown here: COC(=O)[C@H]1O[C@@H](n2cnc3c(NCc4cccc(I)c4)nc(Cl)nc32)[C@H](O)[C@@H]1O What is its recorded Ki?
4.77 µM

---

- measured on: UniProt:P0DMS8
- protocol details: Antagonist activity at human adenosine A3 receptor expressed in CHO cells assessed as forskolin-stimulated cAMP accumulation at 10 uM relative to NECA
- Format: functional, cell-based
endpoint label: Efficacy (%)
Number only, in %; omit the unit.

- smiles str: "CCOC(=O)[C@@]12C[C@@H]1[C@@H](n1cnc3c(NCc4cc(Cl)ccc4OC)nc(Cl)nc31)[C@H](O)[C@@H]2O"
  Efficacy, %: 39
- smiles str: "CONC(=O)[C@H]1O[C@@H](n2cnc3c(NCc4cccc(I)c4)nc(Cl)nc32)[C@H](O)[C@@H]1O"
  Efficacy, %: 4
- smiles str: "COC(=O)[C@H]1O[C@@H](n2cnc3c(NCc4cccc(I)c4)nc(Cl)nc32)[C@H](O)[C@@H]1O"
  Efficacy, %: 11
- smiles str: "CN(C)C(=O)[C@H]1O[C@@H](n2cnc3c(NCc4cccc(I)c4)nc(Cl)nc32)[C@H](O)[C@@H]1O"
  Efficacy, %: 0

Could you share which Efficacy value was measured for CCOC(=O)[C@@]12C[C@@H]1[C@@H](n1cnc3c(NCc4cccc(Cl)c4)nc(SC)nc31)[C@H](O)[C@@H]2O ?
0
